All values here come from patent US7910582B2.

Assay: Pharmacokinetics and bioanalysis in the rat
Type: in vivo, male Sprague Dawley Rats
Conditions: male, Sprague Dawley, iv, i.v. 1 mg/kg, citric acid salt, plasma
# half-life per entry

- COMPOUND: "CC(C)N1CCN(C(=O)c2ccc(CN3CCOC(CO)C3)cc2)CC1 (stereo not shown) [Comparative Example 6B]"
  half-life [h]: 2.36
- COMPOUND: "O=C(O)CC(O)(CC(=O)O)C(=O)O.O=C(c1ccc(CN2CCC(F)CC2)cc1)N1CCN(C2CCC2)CC1 [Comparative Example 4B]"
  half-life [h]: 2.08
- COMPOUND: "O=C(O)CC(O)(CC(=O)O)C(=O)O.O=C(c1ccc(CN2CCOC(CO)C2)cc1)N1CCN(C2CC2)CC1 (stereo not shown) [Example 4B]"
  half-life [h]: 1.47
- COMPOUND: "O=C(O)CC(O)(CC(=O)O)C(=O)O.O=C(c1ccc(CN2CCSCC2)cc1)N1CCN(C2CC2)CC1 [Example 3B]"
  half-life [h]: 0.27
